Provide the reported kon of each item.
- MEASUREMENT_TARGET: T1, recombinant human TIGIT (human, UniProt Q495A1 22-141, limits assumed)
- T1 construct: recombinant human TIGIT used in Carterra SPR; also called hTIGIT
- T1 sequence (looked up): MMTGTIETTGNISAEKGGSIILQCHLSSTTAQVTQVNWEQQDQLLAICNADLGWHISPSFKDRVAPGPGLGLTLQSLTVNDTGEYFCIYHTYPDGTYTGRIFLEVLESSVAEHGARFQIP
- PROTOCOL_NOTES: SPR Carterra, average
Enter your answer as a number in M⁻¹ s⁻¹; do not include the unit.

Query :: What does the record list as kon for TIGIT-SC137 (Fc fusion, VHH-Fc fusion in assay) VHH: EVQLVESGGGLVQPGGSLRLSCAASGFTLENNMMGWFRQAPGKEREFVAAISRSGTLKAYADSVKGRFTISADNSKNTAYLQMNSLKPEDTAVYYCSLVSGPRWYWGQGTLVTVSS ?
Result :: 67500

Query :: What does the record list as kon for TIGIT-SC4 (Fc fusion, VHH-Fc fusion in assay) VHH: EVQLVESGGGLVQPGGSLRLSCAASGSIDRINAMGWFRQATGKEREWVASVLRGGYTWYADSVKGRFTISADNSKNTAYLQMNSLKPEDTAVYYCARDSYSTSFWFDPWGQGTLVTVSS ?
Result :: 356000

Query :: What does the record list as kon for TIGIT-SC143 (Fc fusion, VHH-Fc fusion in assay) VHH: EVQLVESGGGLVQPGGSLRLSCAASGFTLGYYVMGWFRQAPGKEREFVAAISASGTLRAYADSVEGRFTISADNSKNTAYLQMNSLKPEDTAVYYCARAELGYSYGSVDGYWGQGTLVTVSS ?
Result :: 504000

Query :: What does the record list as kon for TIGIT-SC17 (Fc fusion, VHH-Fc fusion in assay) VHH: EVQLVESGGGLVQPGGSLRLSCAASGFDFSVSWMGWFRQAPGKEREWVASVLRGGYTWYADSVKGRFTISADNSKNTAYLQMNSLKPEDTAVYYCAREGSWFDYWGQGTLVTVSS ?
Result :: 31200
